# measurementTarget: Glucose-dependent insulinotropic receptor (Homo sapiens)
# Sequence (Q8TDV5 whole entry): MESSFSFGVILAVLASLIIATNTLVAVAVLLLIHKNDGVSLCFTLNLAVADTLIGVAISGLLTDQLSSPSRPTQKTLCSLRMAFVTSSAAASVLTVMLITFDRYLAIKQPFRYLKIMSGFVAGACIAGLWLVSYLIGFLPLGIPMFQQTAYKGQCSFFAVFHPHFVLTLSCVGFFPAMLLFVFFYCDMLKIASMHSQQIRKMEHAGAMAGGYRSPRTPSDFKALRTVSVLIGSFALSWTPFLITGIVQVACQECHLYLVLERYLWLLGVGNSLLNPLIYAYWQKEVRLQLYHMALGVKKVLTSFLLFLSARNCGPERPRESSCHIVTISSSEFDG
# experimentalProtocol: Agonist activity at recombinant human GPR119 expressed in HEK293 cells after 24 hrs by steady-glo luciferase assay
valueType: EC50

Enquiry: For the compound CC(C)(C)OC(=O)N1CCC(OC(=O)c2cn(-c3ccc(S(C)(=O)=O)cc3)nn2)CC1 , report EC50.
Return: 3.67 nM

Enquiry: For the compound CC(C)(C)OC(=O)N1CCN(C(=O)c2cn(-c3ccc(Cl)c(C(F)(F)F)c3)nn2)CC1 , report EC50.
Return: 12.3 nM

Enquiry: For the compound CC(C)(C)OC(=O)N1CCN(C(=O)c2cn(-c3nc4ccccc4s3)nn2)CC1 , report EC50.
Return: 7.12 nM

Enquiry: For the compound CC(C)(C)OC(=O)N1CCN(C(=O)c2cn(-c3ccc(S(C)(=O)=O)cc3F)nn2)CC1 , report EC50.
Return: 12.4 nM

Enquiry: For the compound CC(C)(C)OC(=O)N1CCN(C(=O)c2cn(-c3ccc(C(F)(F)F)cc3Cl)nn2)CC1 , report EC50.
Return: 8.78 nM

* * *

# measurementTarget: Glucose-dependent insulinotropic receptor (Homo sapiens)
# experimentalProtocol: Agonist activity at recombinant human GPR119 expressed in HEK293 cells after 24 hrs by steady-glo luciferase assay
Simple rule here: EC50 less than 8 nM is true, otherwise false.

Enquiry: Threshold test, EC50 < 8 nM: CC(C)(C)OC(=O)N1CCC(OC(=O)c2cn(-c3ccc(C(F)(F)F)cc3Cl)nn2)CC1
Return: false

Enquiry: Threshold test, EC50 < 8 nM: CC(C)(C)OC(=O)N1CCC(OC(=O)c2cn(-c3ccc(Cl)c(C(F)(F)F)c3)nn2)CC1
Return: false

Enquiry: Threshold test, EC50 < 8 nM: CC(C)(C)OC(=O)N1CCN(C(=O)c2cn(-c3ccc(S(C)(=O)=O)cc3)nn2)CC1
Return: true

Enquiry: Threshold test, EC50 < 8 nM: CC(C)(C)OC(=O)N1CCN(C(=O)c2cn(-c3ccc(C#N)cc3F)nn2)CC1
Return: true

* * *

Kindly supply the reported pEC50 values for the records listed here.
# measurementTarget: Glucose-dependent insulinotropic receptor (Homo sapiens, UniProt Q8TDV5)
# experimentalProtocol: Agonist activity at recombinant human GPR119 expressed in HEK293 cells after 24 hrs by steady-glo luciferase assay
# log scale: pEC50 equals minus log10 of the concentration in mol/L

Enquiry: Specify the recorded pEC50 for CC(C)(C)OC(=O)N1CCC(OC(=O)c2cn(-c3ccc(S(C)(=O)=O)cc3F)nn2)CC1 , system: Glucose-dependent insulinotropic receptor (Homo sapiens, UniProt Q8TDV5).
Return: 7.85

Enquiry: Specify the recorded pEC50 for CC(C)(C)OC(=O)N1CCN(C(=O)c2cn(-c3ccc(C(F)(F)F)cc3)nn2)CC1 , system: Glucose-dependent insulinotropic receptor (Homo sapiens, UniProt Q8TDV5).
Return: 7.87

Enquiry: Specify the recorded pEC50 for CC(C)(C)OC(=O)N1CCC(OC(=O)c2cn(-c3ccc(C(F)(F)F)cc3)nn2)CC1 , system: Glucose-dependent insulinotropic receptor (Homo sapiens, UniProt Q8TDV5).
Return: 7.98

Enquiry: Specify the recorded pEC50 for CC(C)(C)OC(=O)N1CCC(OC(=O)c2cn(-c3ccc(C#N)cc3F)nn2)CC1 , system: Glucose-dependent insulinotropic receptor (Homo sapiens, UniProt Q8TDV5).
Return: 8.44

Enquiry: Specify the recorded pEC50 for CC(C)c1noc(C2CCN(c3ncnc(Nc4ccc(S(C)(=O)=O)cc4F)c3[N+](=O)[O-])CC2)n1 , system: Glucose-dependent insulinotropic receptor (Homo sapiens, UniProt Q8TDV5).
Return: 8.32
